- Test system: rodent lifetime carcinogenesis bioassay, tumor incidence TD50
- ASSAY NAME: carcinogenic potency in animals, long-term in vivo studies, CPDB compilation (AID 1745844)
- ASSAY CONDITIONS: rat; strain Sprague-Dawley; both sexes; in feed; site: liver; lesion: hyperplastic nodule; dosed 104 weeks; study length 104 weeks
OBSERVED PROPERTY: TD50 (mg/kg/day)
Give the value, in units of mg/kg/day, as a plain number.

Please fill in: TD50 reported for CC(COc1ccc(C(C)(C)C)cc1)OS(=O)OCCCl (stereo unspecified) = 760

---

- Test system: rodent lifetime carcinogenesis bioassay, tumor incidence TD50
- ASSAY NAME: carcinogenic potency in animals, long-term in vivo studies, CPDB compilation (AID 1745844)
- ASSAY CONDITIONS: rat; strain Sprague-Dawley Spartan; females; in drinking water; site: liver; lesion: neoplastic nodule; dosed 104 weeks; study length 104 weeks
Active and inactive are the calls of the source. How the calls were made is not given here.
OBSERVED PROPERTY: TD50

Value of measured TD50 for the entry C=C(Cl)Cl : 414 mg/kg/day (inactive)

Origin of measurements: PubChem BioAssay AID1745844
